Value source: ChEMBL document CHEMBL4616723

Tested on: Staphylococcus aureus
Experiment: Antibacterial activity against Staphylococcus aureus ATCC 25923 after 20 hrs by CLSI based-broth microdilution method
Assay type: functional
Details: ATCC 25923, 20 h
Quick reference: MIC of the listed items.
measured quantity: MIC (µg/mL)

molecule smiles	measured result
O=C(O)c1c(Cl)cccc1NCc1ccc(Sc2ccc(Cl)c(Cl)c2)c([N+](=O)[O-])c1	8
O=C(O)c1ccccc1NCc1ccc(Sc2ccc(Cl)c(Cl)c2)c([N+](=O)[O-])c1	8
O=C(O)c1ccccc1C(=O)c1ccc(Sc2ccc(Cl)c(Cl)c2)c([N+](=O)[O-])c1	16

###

Test system: HepG2
Assay: Cytotoxicity against human HepG2 cells after 48 to 72 hrs by MTT assay
Type: cell-based

molecule smiles	CC50, µM
O=C(O)c1ccc(Br)c(NCc2ccc(Sc3ccc(Cl)c(Cl)c3)c([N+](=O)[O-])c2)c1	92.6
O=C(O)c1ccccc1C(=O)c1ccc(Sc2ccc(Cl)c(Cl)c2)c([N+](=O)[O-])c1	63.8
O=C(O)c1ccc(Cl)c(NCc2ccc(Sc3ccc(Cl)c(Cl)c3)c([N+](=O)[O-])c2)c1	110
O=C(O)c1ccc(Cl)cc1NCc1ccc(Sc2ccc(Cl)c(Cl)c2)c([N+](=O)[O-])c1	74.4
O=C(O)c1ccccc1NCc1ccc(Sc2ccc(Cl)c(Cl)c2)c([N+](=O)[O-])c1	170
O=C(O)c1c(Cl)cccc1NCc1ccc(Sc2ccc(Cl)c(Cl)c2)c([N+](=O)[O-])c1	97.7

###

Listed here are compounds together with their documented MIC.
System: Streptococcus agalactiae
Assay: Antibacterial activity against Streptococcus agalactiae ATCC 12386 after 20 hrs by CLSI based-broth microdilution method
Type: functional
Conditions: ATCC 12386, 20 h

compound	readout relation	MIC (µg/mL)
CO[C@H]1/C=C/O[C@@]2(C)Oc3c(C)c(O)c4c(O)c(c(/C=N/N5CCN(C)CC5)c(O)c4c3C2=O)NC(=O)/C(C)=C\C=C\[C@H](C)[C@H](O)[C@@H](C)[C@@H](O)[C@@H](C)[C@H](OC(C)=O)[C@@H]1C [RIFAMPIN]	=	0.03
O=C(O)c1cccc(NCc2ccc(Sc3ccc(Cl)c(Cl)c3)c([N+](=O)[O-])c2)c1	=	8
Nc1ccccc1Sc1ccc(C(=O)c2ccccc2C(=O)O)cc1[N+](=O)[O-]	>	256
O=C(O)c1ccccc1C(=O)c1ccc(Sc2ccc(Cl)c(Cl)c2)c([N+](=O)[O-])c1	=	16
O=C(O)c1ccc(Cl)cc1NCc1ccc(Sc2ccc(Cl)c(Cl)c2)c([N+](=O)[O-])c1	=	2

###

System: Streptococcus agalactiae
Test: Antibacterial activity against Streptococcus agalactiae ATCC 12386 after 20 hrs by CLSI based-broth microdilution method
Format: functional
Conditions: ATCC 12386, 20 h
Reported MIC values are given for each entry in this list.
measured quantity: MIC (µg/mL)

molecule smiles	measured result
O=C(O)c1ccc(Cl)c(NCc2ccc(Sc3ccc(Cl)c(Cl)c3)c([N+](=O)[O-])c2)c1	4
CN[C@H](CC(C)C)C(=O)N[C@H]1C(=O)N[C@@H](CC(N)=O)C(=O)N[C@H]2C(=O)N[C@H]3C(=O)N[C@H](C(=O)N[C@H](C(=O)O)c4cc(O)cc(O)c4-c4cc3ccc4O)[C@H](O)c3ccc(c(Cl)c3)Oc3cc2cc(c3O[C@@H]2O[C@H](CO)[C@@H](O)[C@H](O)[C@H]2O[C@H]2C[C@](C)(N)[C@H](O)[C@H](C)O2)Oc2ccc(cc2Cl)[C@H]1O	1
O=C(O)c1c(Cl)cccc1NCc1ccc(Sc2ccc(Cl)c(Cl)c2)c([N+](=O)[O-])c1	4
O=C(O)c1ccccc1NCc1ccc(Sc2ccc(Cl)c(Cl)c2)c([N+](=O)[O-])c1	4

###

System: A549
Experiment: Cytotoxicity against human A549 cells after 48 to 72 hrs by MTT assay
Type: cell-based

molecule smiles	CC50 (µM)
O=C(O)c1ccccc1C(=O)c1ccc(Sc2ccc(Cl)c(Cl)c2)c([N+](=O)[O-])c1	76.7
O=C(O)c1ccc(Cl)cc1NCc1ccc(Sc2ccc(Cl)c(Cl)c2)c([N+](=O)[O-])c1	75.7
O=C(O)c1c(Cl)cccc1NCc1ccc(Sc2ccc(Cl)c(Cl)c2)c([N+](=O)[O-])c1	93.3
O=C(O)c1ccc(Br)c(NCc2ccc(Sc3ccc(Cl)c(Cl)c3)c([N+](=O)[O-])c2)c1	67.7
O=C(O)c1ccccc1NCc1ccc(Sc2ccc(Cl)c(Cl)c2)c([N+](=O)[O-])c1	252
O=C(O)c1ccc(Cl)c(NCc2ccc(Sc3ccc(Cl)c(Cl)c3)c([N+](=O)[O-])c2)c1	116

###

Experiment: Therapeutic index, ratio of CC50 for human HepG2 cells to MIC for Streptococcus pneumoniae ATCC 49619
Format: toxicity
Details: read-out: TI
The following molecules are shown together with reported selectivity ratio values.

molecule smiles	selectivity ratio
O=C(O)c1ccc(Cl)cc1NCc1ccc(Sc2ccc(Cl)c(Cl)c2)c([N+](=O)[O-])c1	36
O=C(O)c1ccc(Br)c(NCc2ccc(Sc3ccc(Cl)c(Cl)c3)c([N+](=O)[O-])c2)c1	24
O=C(O)c1ccccc1NCc1ccc(Sc2ccc(Cl)c(Cl)c2)c([N+](=O)[O-])c1	38
O=C(O)c1ccc(Cl)c(NCc2ccc(Sc3ccc(Cl)c(Cl)c3)c([N+](=O)[O-])c2)c1	27
O=C(O)c1c(Cl)cccc1NCc1ccc(Sc2ccc(Cl)c(Cl)c2)c([N+](=O)[O-])c1	12
O=C(O)c1ccccc1C(=O)c1ccc(Sc2ccc(Cl)c(Cl)c2)c([N+](=O)[O-])c1	7

###

System: Streptococcus pneumoniae
Experiment: Antibacterial activity against Streptococcus pneumoniae ATCC 49619 after 20 hrs by CLSI based-broth microdilution method
Format: functional
Settings: ATCC 49619, 20 h

molecule smiles	target or system	value unit	readout relation	MIC
O=C(Nc1ccccc1C(=O)O)c1ccc(Sc2ccc(Cl)c(Cl)c2)c([N+](=O)[O-])c1	Streptococcus pneumoniae	µg/mL	>	256
O=C(O)c1ccccc1C(=O)c1ccc(Sc2ccccc2F)c([N+](=O)[O-])c1	Streptococcus pneumoniae	µg/mL	=	128
O=C(O)c1ccccc1C(=O)c1ccc(Nc2ccc(Cl)c(Cl)c2)c([N+](=O)[O-])c1	Streptococcus pneumoniae	µg/mL	=	64
CC(C)Nc1cccc(Sc2ccc(C(=O)c3ccccc3C(=O)O)cc2[N+](=O)[O-])c1	Streptococcus pneumoniae	µg/mL	=	32
CC(C)(C)c1cccc(Nc2ccc(C(=O)c3ccccc3C(=O)O)cc2[N+](=O)[O-])c1	Streptococcus pneumoniae	µg/mL	=	256
O=C(O)c1ccccc1C(=O)c1ccc(Sc2ccccn2)c([N+](=O)[O-])c1	Streptococcus pneumoniae	µg/mL	>	256
O=[N+]([O-])c1cc(CNc2cccc(CO)c2)ccc1Sc1ccc(Cl)c(Cl)c1	Streptococcus pneumoniae	µg/mL	>	256
O=C(O)c1ccccc1C(=O)c1ccc(NCc2ccccc2F)c([N+](=O)[O-])c1	Streptococcus pneumoniae	µg/mL	=	256
CC(=O)Nc1cccc(Sc2ccc(C(=O)c3ccccc3C(=O)O)cc2[N+](=O)[O-])c1	Streptococcus pneumoniae	µg/mL	=	256
O=C(O)c1ccccc1C(=O)c1ccc(Nc2cccc3cccnc23)c([N+](=O)[O-])c1	Streptococcus pneumoniae	µg/mL	>	256
COc1ccccc1Sc1ccc(C(=O)c2ccccc2C(=O)O)cc1[N+](=O)[O-]	Streptococcus pneumoniae	µg/mL	=	128

###

Test system: Staphylococcus aureus
Test: Antibacterial activity against Staphylococcus aureus ATCC 25923 after 20 hrs by CLSI based-broth microdilution method
Type: functional
Conditions: ATCC 25923, 20 h

molecule smiles	value unit	readout relation	MIC
O=C(O)c1cccc(NCc2ccc(Sc3ccc(Cl)c(Cl)c3)c([N+](=O)[O-])c2)c1	µg/mL	=	8
Nc1ccccc1Sc1ccc(C(=O)c2ccccc2C(=O)O)cc1[N+](=O)[O-]	µg/mL	>	256
CO[C@H]1/C=C/O[C@@]2(C)Oc3c(C)c(O)c4c(O)c(c(/C=N/N5CCN(C)CC5)c(O)c4c3C2=O)NC(=O)/C(C)=C\C=C\[C@H](C)[C@H](O)[C@@H](C)[C@@H](O)[C@@H](C)[C@H](OC(C)=O)[C@@H]1C	µg/mL	=	0.01
O=C(O)c1ccc(Cl)cc1NCc1ccc(Sc2ccc(Cl)c(Cl)c2)c([N+](=O)[O-])c1	µg/mL	=	4
O=C(O)c1ccc(Cl)c(NCc2ccc(Sc3ccc(Cl)c(Cl)c3)c([N+](=O)[O-])c2)c1	µg/mL	=	8

###

Assay: Inhibition of Escherichia coli RNAP/sigma-70 protein-protein interaction assessed as reduction in RNA synthesis preincubated for 10 mins followed by sigma-70/DNA template/AGU/ApU/alpha [32P]GTP addition and measured after 10 mins by phosphorimaging analysis
pIC50: −log10 of the molar value.
measured quantity: pIC50

molecule smiles	measured quantity	measured result
O=C(O)c1ccc(Cl)cc1NCc1ccc(Sc2ccc(Cl)c(Cl)c2)c([N+](=O)[O-])c1	pIC50	5.17
O=C(O)c1ccccc1C(=O)c1ccc(Sc2ccc(Cl)c(Cl)c2)c([N+](=O)[O-])c1	pIC50	4.69
